Every entry's value here was drawn from patent US9045445B2.

- target_or_test_system: glycine transporter-1 (GlyT-1) (Homo sapiens)
- Construct: JAR cells (ATCC#HTB-144), which endogenously express GlyT-1; host or cells: JAR human choriocarcinoma cells
- measurement_description: [14C]glycine uptake assay in JAR cells endogenously expressing GlyT-1 (scintillation proximity)
- Type: cell-based
- experimental_context: JAR cells, [14C]glycine 5 μM, 3 hour incubation; read-out: GlyT-1 IC50
Counter-ions that a name gives are not always drawn.
Assign IC50 to each entry below.

Example entries begin here.
Documented IC50 of Cn1cc(S(=O)(=O)N2CCN(C3(CNC(=O)c4c(F)cccc4F)CCC(F)(F)CC3)CC2)nn1 [compound 189, Hydrochloride] : 5 nM

Documented IC50 of CCCS(=O)(=O)N1CCN(C2(CNC(=O)c3ccc(F)cc3C)CCCCC2)CC1 [compound 10, Hydrochloride] : 28 nM

Documented IC50 of CCCS(=O)(=O)N1CCN(C2(CNC(=O)c3ccc(C)cc3)CCCCCC2)CC1 [compound 57, Hydrochloride] : 887 nM

Documented IC50 of Cc1ccc(C(=O)NCC2(N3CCN(S(=O)(=O)c4cn(C)cn4)CC3)CCCCC2)c(C)c1 [compound 94, Hydrochloride] : 13 nM

Others:
Documented IC50 of CC(NC(=O)c1ccc(C(F)(F)F)cc1Cl)C1(N2CCN(S(=O)(=O)c3cn(C)nn3)CC2)CCC(F)(F)CC1 (racemic) [compound 222, Hydrochloride] : 1 nM

###

Structures can show the parent of a compound that is named as a salt.
Assign melting point to each entry below.

Documented melting point of CC(=O)CS(=O)(=O)N1CCN(C2(CNC(=O)c3ccc(C(F)(F)F)cc3Cl)CCC(F)(F)CC2)CC1 (as salt: hydrochloride) : 65 to 67 °C

Documented melting point of CC(O)CS(=O)(=O)N1CCN(C2(CNC(=O)c3ccc(C(F)(F)F)cc3Cl)CCC(F)(F)CC2)CC1.Cl (single isomer, unassigned; enantiomer a) : 80 to 82 °C

Others:
Documented melting point of Cl.Cn1cnc(S(=O)(=O)N2CCN(C3(CNC(=O)c4ccc(C(F)(F)F)cc4Cl)CCC(F)(F)CC3)CC2)n1 : 180 to 185 °C

###

Assign IC50 to each entry below.
- target_or_test_system: glycine transporter-1 (GlyT-1) (Homo sapiens)
- Construct: JAR cells (ATCC#HTB-144), which endogenously express GlyT-1; host or cells: JAR human choriocarcinoma cells
- measurement_description: [14C]glycine uptake assay in JAR cells endogenously expressing GlyT-1 (scintillation proximity)
- Assay type: cell-based
- experimental_context: JAR cells, [14C]glycine 5 μM, 3 hour incubation; read-out: GlyT-1 IC50
Counter-ions that a name gives are not always drawn.
Answers are plain numbers, in nM.

Example entries begin here.
Documented IC50 of CCS(=O)(=O)N1CCN(C2(CNC(=O)c3ccc(C(C)(F)F)cc3Cl)CCC(F)(F)CC2)CC1 [compound 205, Hydrochloride] : 187

Documented IC50 of Cn1cc(S(=O)(=O)N2CCN(C3(CNC(=O)c4c(F)cccc4F)CCCCC3)CC2)nn1 [compound 114, Hydrochloride] : 2

Documented IC50 of Cc1cc(F)ccc1C(=O)NCC1(N2CCN(S(=O)(=O)CC3CC3)CC2)CCCCCC1 [compound 85, Hydrochloride] : 182

Proceeding to the next molecule to report its IC50.
Documented IC50 of CCCS(=O)(=O)N1CCN(C2(CNC(=O)c3ccc(OCc4ccccc4)cc3)CCCCC2)CC1 [compound 27, Hydrochloride] : 549

###

- target_or_test_system: glycine transporter-1 (GlyT-1) (Homo sapiens, UniProt P48067)
- Construct: JAR cells (ATCC#HTB-144), which endogenously express GlyT-1; host or cells: JAR human choriocarcinoma cells
- measurement_description: [14C]glycine uptake assay in JAR cells endogenously expressing GlyT-1 (scintillation proximity)
- Format: cell-based
- experimental_context: JAR cells, [14C]glycine 5 μM, 3 hour incubation; read-out: GlyT-1 IC50
Structures can show the parent of a compound that is named as a salt.
parameter: IC50 (nM)
Numbers only, in nM.

Consider the following items and state reported IC50 for each.
1. Cn1cc(S(=O)(=O)N2CCN(C3(CNC(=O)c4ccc(C(F)(F)F)cc4C(F)(F)F)CCOCC3)CC2)nn1 [compound 276, Hydrochloride]
2. CC(NC(=O)c1ccc(F)cc1Cl)C1(N2CCN(S(=O)(=O)c3cn(C)nn3)CC2)CCC(F)(F)CC1 (stereo not drawn) [compound 220, Hydrochloride]
3. Cn1cnc(S(=O)(=O)N2CCN(C3(CNC(=O)c4ccc(Cl)cc4Cl)CCCC3)CC2)c1 [compound 105, Hydrochloride]

7
83
102

###

- target_or_test_system: glycine transporter-1 (GlyT-1) (Homo sapiens, UniProt P48067)
- Construct: JAR cells (ATCC#HTB-144), which endogenously express GlyT-1; host or cells: JAR human choriocarcinoma cells
- Sequence (P48067 1-706): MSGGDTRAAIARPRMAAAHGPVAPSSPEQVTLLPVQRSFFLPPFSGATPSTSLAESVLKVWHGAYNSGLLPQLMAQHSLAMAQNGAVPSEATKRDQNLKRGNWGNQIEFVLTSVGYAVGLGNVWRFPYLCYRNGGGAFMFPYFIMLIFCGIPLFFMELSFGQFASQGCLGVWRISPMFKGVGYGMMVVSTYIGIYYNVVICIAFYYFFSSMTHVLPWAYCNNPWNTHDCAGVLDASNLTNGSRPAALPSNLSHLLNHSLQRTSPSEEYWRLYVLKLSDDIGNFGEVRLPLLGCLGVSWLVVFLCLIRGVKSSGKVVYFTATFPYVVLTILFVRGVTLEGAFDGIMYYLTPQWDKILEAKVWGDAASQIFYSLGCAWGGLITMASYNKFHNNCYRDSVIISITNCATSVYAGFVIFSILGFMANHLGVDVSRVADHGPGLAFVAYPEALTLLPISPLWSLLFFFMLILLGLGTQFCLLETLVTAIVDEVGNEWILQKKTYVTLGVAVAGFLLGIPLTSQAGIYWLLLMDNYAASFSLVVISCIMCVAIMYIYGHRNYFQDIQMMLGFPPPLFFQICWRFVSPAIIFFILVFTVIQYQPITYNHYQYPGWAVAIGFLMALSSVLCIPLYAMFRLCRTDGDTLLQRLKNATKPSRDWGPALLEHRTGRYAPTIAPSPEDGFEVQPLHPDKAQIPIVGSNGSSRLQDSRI
- measurement_description: [14C]glycine uptake assay in JAR cells endogenously expressing GlyT-1 (scintillation proximity)
- Assay type: cell-based
- experimental_context: JAR cells, [14C]glycine 5 μM, 3 hour incubation; read-out: GlyT-1 IC50
Where a name gives a salt, the structure may show the parent alone.
parameter: IC50 (nM)
Give bare numbers, in nM.

Example entries begin here.
Documented IC50 of CCS(=O)(=O)N1CCN(C2(CNC(=O)c3c(Cl)cc(Cl)cc3Cl)CCC(F)(F)CC2)CC1 [compound 209, Hydrochloride] : 83

Documented IC50 of CC(=O)CS(=O)(=O)N1CCN(C2(CNC(=O)c3ccc(C(F)(F)F)cc3Cl)CCC(F)(F)CC2)CC1 [compound 280, Hydrochloride] : 61

Documented IC50 of Cn1cc(S(=O)(=O)N2CCN(C3(CNC(=O)c4cc(F)c(Cl)cc4Cl)CCC(F)(F)CC3)CC2)nn1 [compound 231, Hydrochloride] : 1

Consider the following items and state reported IC50 for each.
1. CCCS(=O)(=O)N1CCN(C2(CNC(=O)c3c(C)cccc3F)CCCCC2)CC1 [compound 49, Hydrochloride]
2. Cn1cnc(S(=O)(=O)N2CCN(C3(CNC(=O)c4ccc(F)cc4Cl)CCCCC3)CC2)c1 [compound 101, Hydrochloride]
3. CCCS(=O)(=O)N1CCN(C2(CNC(=O)c3ccc(C(F)(F)F)cc3)CCCCCC2)CC1 [compound 61, Hydrochloride]

1. 16
2. 2
3. 105
